# TEST_TARGET: Full-length (FL)-PRMT5-MEP50 enzyme complex (Homo sapiens)
# Construct: Full-length (FL)-PRMT5-MEP50 enzyme complex (recombinant proteins from baculovirus-transfected Sf21 cells: FL-PRMT5; MW=73837 kDa and FL-MEP50; MW=38614); made in house; host or cells: baculovirus-transfected Sf21 cells
# Sequence (O14744 whole entry): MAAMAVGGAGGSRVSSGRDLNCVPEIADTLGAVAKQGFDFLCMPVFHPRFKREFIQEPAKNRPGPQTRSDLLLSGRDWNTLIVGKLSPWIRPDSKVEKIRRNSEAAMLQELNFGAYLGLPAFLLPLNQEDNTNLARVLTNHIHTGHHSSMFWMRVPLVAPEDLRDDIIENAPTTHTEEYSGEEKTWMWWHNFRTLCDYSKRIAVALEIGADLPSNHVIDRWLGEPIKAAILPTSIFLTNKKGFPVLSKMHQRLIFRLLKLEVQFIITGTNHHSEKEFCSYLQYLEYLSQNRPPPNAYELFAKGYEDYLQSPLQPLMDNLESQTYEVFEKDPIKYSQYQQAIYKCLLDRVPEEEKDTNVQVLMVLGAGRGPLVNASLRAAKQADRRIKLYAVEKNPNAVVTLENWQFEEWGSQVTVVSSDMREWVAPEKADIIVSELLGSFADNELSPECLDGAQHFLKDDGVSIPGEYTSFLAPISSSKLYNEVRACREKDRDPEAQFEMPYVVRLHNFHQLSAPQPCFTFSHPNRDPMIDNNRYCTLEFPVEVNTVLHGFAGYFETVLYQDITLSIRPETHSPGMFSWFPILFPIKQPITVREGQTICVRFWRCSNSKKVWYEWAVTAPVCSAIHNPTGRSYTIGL
# Sequence (Q9BQA1 whole entry partner): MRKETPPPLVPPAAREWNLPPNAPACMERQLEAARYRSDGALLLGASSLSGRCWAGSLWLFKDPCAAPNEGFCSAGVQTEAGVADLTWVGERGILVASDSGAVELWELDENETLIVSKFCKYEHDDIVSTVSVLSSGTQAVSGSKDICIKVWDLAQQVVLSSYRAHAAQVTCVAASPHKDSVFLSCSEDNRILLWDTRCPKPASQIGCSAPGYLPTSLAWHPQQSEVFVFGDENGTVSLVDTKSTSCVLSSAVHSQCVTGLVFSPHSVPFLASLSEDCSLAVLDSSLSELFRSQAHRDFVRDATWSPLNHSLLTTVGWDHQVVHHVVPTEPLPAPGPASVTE
# PROCEDURE_DETAILS: PRMT5-MEP50 Enzyme Methylation Assay (Version B)
# Assay type: biochemical
# RUN_CONDITIONS: single EC50 = 4 parameter single site sigmoidal fit; EC50 1 = first value of 7 parameter biphasic fit; read-out: Enzyme Methylation Assay Version B (EC50 or EC50 1)
ENDPOINT_LABEL: EC50 (nM)
Numbers only, in nM.

Some compounds with recorded EC50:
                                   compound                               test_target  result_value
0  O=C(c1ccc(C(=O)N2C3CCC2COC3)cc1)N1CCC2(Cc3ccccc3CN2)C(O)C1 (single isomer, unassigned) [Example 150]  Full-length (FL)-PRMT5-MEP50 enzyme complex (Homo sapiens)          5.61
1  O=C(c1ccc(C(=O)N2C3CCC2COC3)cc1OC1CC1)N1CCC2(CC1)Cc1ccccc1CN2  Full-length (FL)-PRMT5-MEP50 enzyme complex (Homo sapiens)            11
2  [2H]C1([2H])NC2(CCN(C(=O)c3ccc(C(=O)N4C5CCC4COC5)cc3OCC)CC2)Cc2ccccc21  Full-length (FL)-PRMT5-MEP50 enzyme complex (Homo sapiens)          6.32
3  CCOc1cc(C(=O)N2C3CCC2COC3)ccc1C(=O)N1CCC2(Cc3ccccc3CN2)C(O)C1 (single isomer, unassigned) [Example 86]  Full-length (FL)-PRMT5-MEP50 enzyme complex (Homo sapiens)          82.2
4  CCOc1nc(Cl)ccc1C(=O)N1CCC2(CC1)Cc1ccccc1CN2  Full-length (FL)-PRMT5-MEP50 enzyme complex (Homo sapiens)          15.1

Quick one: give me EC50 for each item below, same order please.
1. O=C(c1ccc(-c2ncnn2C2CC2)cc1Cl)N1CC[C@]2(Cc3ccccc3CN2)[C@H](O)C1
2. CCOc1cc(C(=O)N2C3CCC2COC3)ccc1C(=O)N1CCC2(Cc3ccccc3CN2)C(O)C1 (single isomer, unassigned) [Example 89]
3. O=C(c1ccc(C(=O)N2C3CCC2COC3)cc1)N1CCC2(CC1)Cc1ccccc1CN2
4. CCOc1nc(C(F)(F)F)ccc1C(=O)N1CCC2(CC1)Cc1ccccc1CN2
5. CCOc1cc(C(=O)N2C3CCC2COC3)ccc1C(=O)N1CCC2(CC1)Cc1ccccc1CN2
6. CCOc1cc(C(=O)N2C3CCC2COC3)ccc1C(=O)N1CCC2(CC1)Cc1ccc(Cl)cc1CN2

[3.31, 4.81, 32.3, 86.3, 5.42, 6.71]

// for each compound in input: emit EC50
1. CC(=O)N1CCC(Nc2cc(C(=O)N3CC[C@]4(Cc5ccccc5CN4)[C@H](O)C3)ccn2)C(F)(F)C1 (single isomer, unassigned) [Example 97]
2. O=C(c1ccc(C(=O)N2C3CCC2COC3)cc1)N1CCC2(Cc3ccccc3CN2)C(O)C1 (single isomer, unassigned) [Example 151]
3. O=C(c1ccc(-c2nnc(C3CC3)o2)cc1)N1CCC2(CC1)Cc1ccccc1CN2

1. 4.54
2. 882
3. 510

Data provenance is patent US12441730B2.
